Target: hCYP3A4 in HLMs (Homo sapiens, UniProt P08684)
Sequence (P08684 whole entry): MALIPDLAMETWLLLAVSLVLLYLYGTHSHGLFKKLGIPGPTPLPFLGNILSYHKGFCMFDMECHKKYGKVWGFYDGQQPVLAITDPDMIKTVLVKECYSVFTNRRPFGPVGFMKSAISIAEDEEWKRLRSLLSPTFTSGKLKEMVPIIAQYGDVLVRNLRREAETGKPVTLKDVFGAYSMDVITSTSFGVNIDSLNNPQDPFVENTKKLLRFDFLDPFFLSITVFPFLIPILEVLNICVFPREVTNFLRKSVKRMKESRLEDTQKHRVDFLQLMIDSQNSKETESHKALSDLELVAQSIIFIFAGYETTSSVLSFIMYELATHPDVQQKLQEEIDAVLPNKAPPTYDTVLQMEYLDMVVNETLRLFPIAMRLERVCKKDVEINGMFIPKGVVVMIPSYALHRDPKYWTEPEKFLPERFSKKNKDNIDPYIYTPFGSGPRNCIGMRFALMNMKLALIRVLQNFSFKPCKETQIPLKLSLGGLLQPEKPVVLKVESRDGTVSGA
Assay: NFa-based screening and characterizing of hCYP3A4 inhibitors in HLMs
Conditions: inhibitor 1 μM, HLMs, NFa as fluorogenic substrate
# maps each entry to its Residual activity
Expressed in %, but write only the number.

Below: 2 molecules and their reported Residual activity.
COc1cc2c(cc1OC)-c1cc3ccc4c(c3c[n+]1CC2)OCO4 [Epiberberine] :: 89.82
CC(C)=CCc1cc(C(=O)/C=C/c2ccc(O)cc2)c(O)cc1O [Bavachalcone] :: 90.43

Return reported Residual activity. Input molecule: O=C1c2c(O)cc(O)cc2O[C@H](c2ccc(O)cc2)[C@H]1O [Aromadendrin]
91.70

Consider the molecule COc1ccc(-c2oc3c(CC=C(C)C)c(O)cc(O)c3c(=O)c2O)cc1 [Anhydroicaritin] and give its recorded Residual activity.
87.82

Report measured Residual activity; entry is COc1cc2c(=O)n(C)c3c4cc5c(cc4ccc3c2cc1OC)OCO5 [Oxynitidine]
89.98

Input COc1ccc(-c2cc(=O)c3c(O)c(OC)c(O)c(OC)c3o2)cc1 [Lysionotin] , output reported Residual activity.
96.88

Identify the reported Residual activity for the following entry. CCN1C[C@]2(OC(=O)c3ccccc3NC(C)=O)CC[C@H](OC)[C@@]34[C@@H]2C[C@@H]([C@@H]13)[C@@]1(O)C[C@H](OC)[C@H]2C[C@@H]4[C@]1(O)[C@H]2OC [Lappaconitine]
94.46

Give a short answer stating reported Residual activity for COc1cc2c(cc1O)[C@@H](Cc1ccc(O)c(Oc3ccc(C[C@@H]4c5cc(OC)c(OC)cc5CCN4C)cc3)c1)N(C)CC2 [Daurisoline] .
91.85

Provide one value: measured Residual activity of O=C1C[C@@H](c2ccc(O)cc2)Oc2cc(O)ccc21 [Liquiritigenin]
90.60

* * *

Test system: CYP3A4
Test: Liver organ imaging in the presence of CYP3A4 inhibitor (ex vivo)
Conditions: mouse, excised whole liver tissue (ex vivo), probe NFa (50 µM); whole mice liver, inhibitor 1 h, NFa 50 µM 30 min; read-out: IC50 (4‐HNFa levels in liver tissue)
measurement-label: IC50 (nM)
Return type: number; implicit unit nM.

State, for CYP3A4, measured IC50 of the compound listed here: O=C(/C=C/c1ccc2cnccc2c1)c1ccc(N2CCCC2)cc1 [D13]
270

* * *

Test: In vivo inhibitory effect against CYP3A4 (pharmacokinetics of NFa with inhibitor)
Set-up: species or system C57 mice
Details: C57, mouse, plasma, po, 20 mg/kg, NFa 20 mg/kg i.g. with RTV 50 mg/kg i.g., mice plasma
measurement-label: half-life (h)
// return numeric value only (unit: h, not printed)

Name the recorded half-life of the compound listed here: O=C1c2cccc3cccc(c23)C(=O)N1Cc1cscn1 [NFa, N-(4-Thiazolemethanamino)-naphtahlimide]
8.09

* * *

Assay: Pharmacokinetics and oral bioavailability of NFa
Format: in vivo
Settings: mouse, plasma, iv; 2 mg/kg, mice
measurement-label: AUC(0-inf) (ng·h/mL)
Form entry: value (ng·h/mL) — number only.

Tell me measured AUC(0-inf) for O=C1c2cccc3cccc(c23)C(=O)N1Cc1cscn1 [NFa, N-(4-Thiazolemethanamino)-naphtahlimide] please.
439

* * *

Assay: Pharmacokinetics and oral bioavailability of NFa
Format: in vivo
Conditions: mouse, plasma, iv; 2 mg/kg, mice
measurement-label: half-life

State its half-life for this molecule: O=C1c2cccc3cccc(c23)C(=O)N1Cc1cscn1 [NFa, N-(4-Thiazolemethanamino)-naphtahlimide]
1.24 h

* * *

Biological target: hCYP3A4 in HLMs (Homo sapiens, UniProt P08684)
Assay: NFa-based screening and characterizing of hCYP3A4 inhibitors in HLMs
Details: inhibitor 1 μM, HLMs, NFa as fluorogenic substrate
Measured Residual activity accompanies every entry in the list below.
Note: unit % is implicit; provide only the numeric part.

CC(C)=CCCC(C)(O)[C@H]1CC[C@]2(C)[C@@H]1[C@H](O)C[C@@H]1[C@@]3(C)CC[C@H](O)C(C)(C)[C@@H]3CC[C@]12C (stereo in doubt) :: 69.66
CC(C)=CCC[C@](C)(O)[C@H]1CC[C@]2(C)[C@@H]1[C@H](O)C[C@@H]1[C@@]3(C)CC[C@H](O)C(C)(C)[C@@H]3[C@@H](O)C[C@]12C :: 43.85

In the following, a different compound is considered.
Fill in reported Residual activity for this entry: `C=CC(C)(C)c1cc(/C=C/C(=O)c2ccc(O)cc2)c(OC)cc1O`
39.20

Data provenance is paper PMC12036557.
